biological target: BRD4 BD1 (Homo sapiens); construct: BRD2 BD1, BRD3 BD1 and BRD4 BD1 (Cisbio); purchased Cisbio; assay: Binding assay, BRD4 BD1 to acetylated histone H4 Peptide-Biotin (EPIgeneous Binding Domain Kit A); conditions: test compound at 300 nmol/L; read-out: Binding inhibition percentage BRD4 BD1
Provide the recorded inhibition at 0.3 µM for the entries that follow.
Quote the value and follow it with the unit of measurement.

CCn1c(=O)cc(C2CCN(C)CC2)c2cc(C(=O)N3CCCc4ccccc43)ccc21
94%

Required: inhibition at 0.3 µM, one value per molecule below.
1. CCn1c(=O)cc(N2CCOCC2)c2cc(-n3ccnc3-c3ccccc3)ccc21
2. CCn1c(=O)cc(C2CCN(CCO)CC2)c2cc(C(=O)N(C)c3ccc4c(c3)CCCC4)ccc21
3. CCn1c(=O)cc(N2CCOCC2)c2cc(-n3c(-c4ccccc4)cn(CCO)c3=O)ccc21
4. CCn1c(=O)cc(N2CCOCC2)c2cc(-n3c(-c4ccc(C)cc4)cn(C)c3=O)ccc21
5. CCn1cc(-c2ccccc2)n(-c2ccc3c(c2)c(N2CCOCC2)cc(=O)n3CC)c1=O
6. CCn1c(=O)cc(N2CCOCC2)c2cc(-n3c(-c4ccc(Cl)cc4)c[nH]c3=O)ccc21
7. CCCn1cc(-c2ccccc2)n(-c2ccc3c(c2)c(N2CCOCC2)cc(=O)n3CC)c1=O
8. CCn1c(=O)cc(C2CC2)c2cc(-c3nc(C)[nH]c3-c3ccccc3)ccc21

Output:
["94%", "95%", "94%", "94%", "93%", "91%", "94%", "90%"]

# per-item lookup of inhibition at 0.3 µM; items listed below
1. CCn1c(=O)cc(C2CCN(C(=O)C(C)C)CC2)c2cc(C(=O)N(C)c3ccc(C)cc3)ccc21
2. CCn1c(=O)cc(C2CCN(CCO)CC2)c2cc(C(=O)N(C)c3ccc4c(c3)CCCCC4)ccc21
3. CCn1c(=O)cc(C2CC2)c2cc(-c3nc(C)nn3-c3ccccc3)ccc21
4. CCn1c(=O)cc(C2CCC(O)CC2)c2cc(C(=O)N(C)c3ccc(Cl)cc3)ccc21 (stereo not shown)
5. CCn1c(=O)cc(N2CCOCC2)c2cc(-c3cnn(C)c3-c3ccccc3)ccc21
6. CCn1c(=O)cc(C2CCN(C)CC2)c2cc(C(=O)N(C)c3ccc4c(c3)CCC4)ccc21
7. CCn1c(=O)cc(C2CC2)c2cc(N3C(=O)C(C)C(=O)N3c3ccccc3)ccc21 (stereo not shown)

Output:
1. 94%
2. 94%
3. 94%
4. 95%
5. 94%
6. 94%
7. 93%

---

Record: GI50 reported on human acute myeloid leukemia cell line MOLM-13.
Give bare numbers, in nM.

Consider the following items and state reported GI50 for each.
1. CCn1c(=O)cc(N2CCOCC2)c2cc(-n3c(-c4ccc(Cl)cc4)cn(C)c3=O)ccc21
2. CCn1c(=O)cc(C2CCN(C)CC2)c2cc(C(=O)N3CCCc4ccccc43)ccc21
3. CCn1c(=O)cc(C2CCN(C)CC2)c2cc(C(=O)N(C)c3ccc(C)cc3)ccc21
4. CCn1c(=O)cc(N2CCOCC2)c2cc(-n3c(-c4ccccc4)cn(C(C)C)c3=O)ccc21

Output:
1: 43; 2: 44; 3: 32; 4: 43

Report GI50 for each item below.
1. CCn1c(=O)cc(N2CCOCC2)c2cc(-n3c(-c4ccc(Cl)cc4)c[nH]c3=O)ccc21
2. CCn1c(=O)cc(C2CCN(C)CC2)c2cc(C(=O)N(C)c3ccc4c(c3)CCC4)ccc21

Output:
1. 37
2. 16

---

molecular target: BRD3 BD1 (Homo sapiens, UniProt Q15059); construct: BRD2 BD1, BRD3 BD1 and BRD4 BD1 (Cisbio); purchased Cisbio; test: Binding assay, BRD3 BD1 to acetylated histone H4 Peptide-Biotin (EPIgeneous Binding Domain Kit A); settings: test compound at 300 nmol/L; read-out: Binding inhibition percentage BRD3 BD1
Sequence (Q15059 34-140 limits assumed): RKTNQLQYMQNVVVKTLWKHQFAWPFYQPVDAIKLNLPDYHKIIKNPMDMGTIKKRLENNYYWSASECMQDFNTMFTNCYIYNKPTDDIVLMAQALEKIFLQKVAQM
I'd be grateful if you could share measured inhibition at 0.3 µM for these entries.
Answers are plain numbers, in %.

CCn1c(=O)cc(C2CC2)c2cc(N3C(=O)C(C)C(=O)N3c3ccccc3)ccc21 (centres unmarked) [Example 280]
90
CCn1c(=O)cc(N2CCOCC2)c2cc(-c3nccn3-c3ccccc3)ccc21 [Example 257]
92
CCn1c(=O)cc(C2CC2)c2cc(N(C)C(=O)c3ccccc3)ccc21 [Example 2]
85
CCn1c(=O)cc(C2CCN(C)CC2)c2cc(C(=O)N(C)c3ccc(C)c(C)c3)ccc21 [Example 294]
95
CCN1CCC(c2cc(=O)n(CC)c3ccc(C(=O)N(C)c4ccccc4)cc23)CC1 [Example 8]
94

Record inhibition at 0.3 µM for all entries; do not skip any.
1. CCn1c(=O)cc(C2CCN(CCO)CC2)c2cc(C(=O)N(C)c3ccc4c(c3)CCCCC4)ccc21 [Example 191]
2. CCCCn1cc(-c2ccccc2)n(-c2ccc3c(c2)c(N2CCOCC2)cc(=O)n3CC)c1=O [Example 264]
3. CCn1c(=O)cc(N2CCOCC2)c2cc(-n3c(-c4ccccc4)cn(C(C)C)c3=O)ccc21 [Example 247]
4. CCn1c(=O)cc(N2CCOCC2)c2cc(-c3cnn(C)c3-c3ccccc3)ccc21 [Example 18]

Output:
1: 95; 2: 94; 3: 93; 4: 93

Your task in this section: give inhibition at 0.3 µM for each listed record.
1. CCn1c(=O)cc(C2CCN(CCO)CC2)c2cc(C(=O)N(C)c3ccc4c(c3)CCCC4)ccc21 [Example 179]
2. CCn1c(=O)cc(C2CC2)c2cc(-c3cccnc3-c3ccccc3)ccc21 [Example 278]
3. CCn1c(=O)cc(C2CC2)c2cc(-c3nc(C)[nH]c3-c3ccccc3)ccc21 [Example 283]
4. CCn1c(=O)cc(N2CCOCC2)c2cc(N3C(=O)CC[C@H]3c3ccccc3)ccc21 [Example 253]
5. CCn1c(=O)cc(C2CC2)c2cc(-n3c(-c4ccc(C(F)(F)F)cc4)c[nH]c3=O)ccc21 [Example 268]

Output:
1. 94
2. 94
3. 87
4. 90
5. 62

Please report inhibition at 0.3 µM for every entry that follows.
1. CCn1c(=O)cc(N2CCOCC2)c2cc(-c3cccnc3-c3ccccc3)ccc21 [Example 279]
2. CCn1c(=O)cc(N2CCOCC2)c2cc(-c3ccccc3-c3ccccc3)ccc21 [Example 258]
3. CCn1c(=O)cc(N2CCOCC2)c2cc(-n3c(-c4ccccc4)cn(CCN4CCOCC4)c3=O)ccc21 [Example 260]

Output:
1: 93; 2: 67; 3: 93

---

target: BRD4 BD2 (Homo sapiens, UniProt O60885); construct: BRD2 BD2, BRD3 BD2 and BRD4 BD2 (Cisbio); purchased Cisbio; assay: Binding assay, BRD4 BD2 to acetylated histone H4 Peptide-Biotin (EPIgeneous Binding Domain Kit B); settings: test compound at 300 nmol/L; read-out: Binding inhibition percentage BRD4 BD2
Provide the reported inhibition at 0.3 µM of each item.
Give bare numbers, in %.

The following compounds have reported results that may help.
CCCn1cc(-c2ccccc2)n(-c2ccc3c(c2)c(N2CCOCC2)cc(=O)n3CC)c1=O
87
CCn1c(=O)cc(N2CCOCC2)c2cc(N(C)C(=O)c3ccc(Cl)cc3)ccc21
88
CCn1c(=O)cc(N2CCOCC2)c2cc(-n3c(-c4ccccc4)cn(CCN4CCOCC4)c3=O)ccc21
88

Please supply inhibition at 0.3 µM for each of the following items, keeping them in order.
1. CCn1c(=O)cc(N2CCOCC2)c2cc(-c3cccnc3-c3ccccc3)ccc21
2. CCn1c(=O)cc(N2CCOCC2)c2cc(N3C(=O)CC[C@H]3c3ccccc3)ccc21

Output:
1: 89; 2: 85

---

molecular target: BRD4 BD1 (Homo sapiens, UniProt O60885); construct: BRD2 BD1, BRD3 BD1 and BRD4 BD1 (Cisbio); purchased Cisbio; assay: Binding assay, BRD4 BD1 to acetylated histone H4 Peptide-Biotin (EPIgeneous Binding Domain Kit A); conditions: test compound at 300 nmol/L; read-out: Binding inhibition percentage BRD4 BD1
Record form. Attribute: inhibition at 0.3 µM. Fill in for each entry.
Answers are plain numbers, in %.

CCCCn1cc(-c2ccccc2)n(-c2ccc3c(c2)c(N2CCOCC2)cc(=O)n3CC)c1=O
95
CCn1c(=O)cc(N2CCOCC2)c2cc(-n3c(-c4ccc(C(F)(F)F)cc4)c[nH]c3=O)ccc21
93
CCn1c(=O)cc(N2CCOCC2)c2cc(-c3nccn3-c3ccccc3)ccc21
95

// field: inhibition at 0.3 µM; key: `CCn1c(=O)cc(N2CCOCC2)c2cc(N(C)C(=O)c3ccc(Cl)cc3)ccc21` ; value = 91

---

biological target: BRD3 BD1 (Homo sapiens, UniProt Q15059); construct: BRD2 BD1, BRD3 BD1 and BRD4 BD1 (Cisbio); purchased Cisbio; assay: Binding assay, BRD3 BD1 to acetylated histone H4 Peptide-Biotin (EPIgeneous Binding Domain Kit A); conditions: test compound at 300 nmol/L; read-out: Binding inhibition percentage BRD3 BD1
parameter measured: inhibition at 0.3 µM
State the value, then name its unit.

See these solved cases before continuing.
CCn1c(=O)cc(C2CCN(C)CC2)c2cc(C(=O)N(C)c3ccc(C)c(F)c3)ccc21
94%
CCn1c(=O)cc(N2CCOCC2)c2cc(-n3c(-c4ccc(Cl)cc4)c[nH]c3=O)ccc21
90%
CCn1c(=O)cc(C2CC2)c2cc(-c3nccnc3-c3ccccc3)ccc21
93%
CCn1c(=O)cc(C2CCN(C)CC2)c2cc(C(=O)N(C)c3ccc4c(c3)CCC4)ccc21
94%
CCn1c(=O)cc(N2CCOCC2)c2cc(N(C)C(=O)c3ccc(Cl)cc3)ccc21
91%
CCC1C(=O)N(c2ccccc2)N(c2ccc3c(c2)c(C2CC2)cc(=O)n3CC)C1=O (centres unmarked)
92%

Give measured inhibition at 0.3 µM for every item shown.
1. CCn1c(=O)cc(C2CC2)c2cc(-n3c(-c4ccc(Cl)cc4)cn(C)c3=O)ccc21
2. CCn1c(=O)cc(C2CC2)c2cc(-n3c(-c4ccc(Cl)cc4)c[nH]c3=O)ccc21

Output:
["58%", "72%"]

Go through the list and state inhibition at 0.3 µM for each entry.
1. CCn1c(=O)cc(C)c2cc(-c3cccnc3-c3ccccc3)ccc21
2. Cc1ccc(N(C)C(=O)c2ccc3c(c2)c(C2CCN(C)CC2)cc(=O)n3C)cc1
3. CCn1c(=O)cc(N2CCOCC2)c2cc(-n3c(-c4ccc(C(F)(F)F)cc4)c[nH]c3=O)ccc21
4. CCn1c(=O)cc(C(C)C)c2cc(N(C)C(=O)c3ccc(Cl)cc3)ccc21

Output:
1: 88%; 2: 94%; 3: 93%; 4: 79%

Take each entry in turn and give its inhibition at 0.3 µM.
1. CCn1c(=O)cc(C2CCN(C)CC2)c2cc(C(=O)N(C)c3ccc(C)cc3)ccc21
2. CCn1c(=O)cc(C2CC2)c2cc(-c3nc(C)nn3-c3ccccc3)ccc21
3. CCn1c(=O)cc(N2CCOCC2)c2cc(-n3cc(C)nc3-c3ccccc3)ccc21
4. CCn1c(=O)cc(N2CCOCC2)c2cc(-n3c(-c4ccc(Cl)cc4)cn(C)c3=O)ccc21
5. CCn1c(=O)cc(N2CCOCC2)c2cc(-n3c(-c4ccc(C(F)(F)F)cc4)cn(C)c3=O)ccc21

Output:
["94%", "92%", "93%", "55%", "94%"]
